Target: Dihydroorotate dehydrogenase (quinone), mitochondrial [H185A] (Plasmodium falciparum, UniProt Q54A96, H185A)
Sequence (Q54A96 whole entry H185A): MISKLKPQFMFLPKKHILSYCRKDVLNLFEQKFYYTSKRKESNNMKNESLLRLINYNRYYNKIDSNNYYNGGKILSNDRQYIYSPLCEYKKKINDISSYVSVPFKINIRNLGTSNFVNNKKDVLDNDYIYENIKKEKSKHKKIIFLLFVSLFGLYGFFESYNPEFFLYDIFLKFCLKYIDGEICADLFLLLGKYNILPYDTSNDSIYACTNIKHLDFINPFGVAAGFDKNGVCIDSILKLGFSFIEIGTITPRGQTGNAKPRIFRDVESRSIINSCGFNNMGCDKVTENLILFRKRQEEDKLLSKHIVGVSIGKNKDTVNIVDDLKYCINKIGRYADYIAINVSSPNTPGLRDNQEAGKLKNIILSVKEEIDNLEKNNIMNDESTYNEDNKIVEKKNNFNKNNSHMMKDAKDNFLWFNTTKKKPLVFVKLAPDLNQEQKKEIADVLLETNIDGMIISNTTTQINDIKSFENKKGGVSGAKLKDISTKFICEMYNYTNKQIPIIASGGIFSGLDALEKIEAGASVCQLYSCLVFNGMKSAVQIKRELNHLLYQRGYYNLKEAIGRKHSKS
Experiment: DHODH Inhibition Assay
Protocol: The assays were carried out by using a colorimetric DCIP method, which uses the colorimetric reagent 2, 6-dichlorophenolindophenol as the final electron acceptor. DCIP reduction is stoichiometrically equivalent to oxidation of dihydroorotate. Changes in absorbance were quantified on a plate reader and data were analyzed to measure the reduction of DCIP as a decrease in absorbance at 600 nm. […]
pIC50: −log10 of the molar value.
# pIC50 per record follows
measured quantity: pIC50

molecule	modifier	measured number
Cc1c(C(=O)Nc2ccc(Cl)c(Cl)c2)cccc1[N+](=O)[O-]	=	4.22
O=C(Nc1ccccc1C(F)(F)F)Nc1cccc2ccccc12	<	3.70
Cc1c(C(=O)Nc2ccc(F)c(F)c2)cccc1[N+](=O)[O-]	=	3.60
Cc1c(C(=O)Nc2cccc(C(F)(F)F)c2)cccc1[N+](=O)[O-]	=	3.92
Cc1c(C(=O)Nc2cccc(Br)c2)cccc1[N+](=O)[O-]	=	3.85
O=C(Nc1ccc(Cl)cc1)Nc1cccc2cccnc12 [3-(4-chlorophenyl)-1-quinolin-8-ylurea]	<	3.40
Cc1cc(Br)ccc1NC(=O)c1ccc2ccccc2c1 [ChemBridge compound no. 2]	=	3.24
Cc1c(C(=O)Nc2cc(Cl)cc(Cl)c2)cccc1[N+](=O)[O-] [Asinex compound no. 6]	=	3.89
O=C(Nc1ccc(Cl)cc1Cl)c1ccc2ccccc2c1	<	4.30
O=C(Nc1ccccc1F)c1ccc2ccccc2c1	=	3.68
COc1ccccc1NC(=O)Nc1cccc2ccccc12	=	3.85
Cc1c(C(=O)Nc2cccc3ccccc23)cccc1[N+](=O)[O-]	=	3.74
Cc1c(C(=O)Nc2ccc(F)c(Cl)c2)cccc1[N+](=O)[O-]	=	3.89
